Catalogue of log10(IC50) readings, one per entry.
# studyTarget: MAP kinase-interacting serine/threonine-protein kinase 1 (Homo sapiens)
# Sequence (Q9BUB5 whole entry): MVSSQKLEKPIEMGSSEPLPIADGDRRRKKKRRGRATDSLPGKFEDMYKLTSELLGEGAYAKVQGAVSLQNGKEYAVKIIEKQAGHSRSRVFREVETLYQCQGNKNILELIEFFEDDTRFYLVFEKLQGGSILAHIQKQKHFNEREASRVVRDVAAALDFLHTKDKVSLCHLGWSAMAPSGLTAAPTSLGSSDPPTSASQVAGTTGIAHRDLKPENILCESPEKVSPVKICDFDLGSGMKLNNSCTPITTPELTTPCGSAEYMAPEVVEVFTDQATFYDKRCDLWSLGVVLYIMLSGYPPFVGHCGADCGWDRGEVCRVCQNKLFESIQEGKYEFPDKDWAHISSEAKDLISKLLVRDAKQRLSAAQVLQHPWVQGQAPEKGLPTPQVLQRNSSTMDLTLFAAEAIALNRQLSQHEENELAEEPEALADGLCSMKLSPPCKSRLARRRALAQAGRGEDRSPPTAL
# testSummary: Inhibition of ERK2-activated full length wild type MNK1a (unknown origin) using biotin-SGSGKRREILSRRPSYR-NH2 as substrate after 2 hrs by HTRF assay
Answers are given as log10 of IC50 in nM.

Known log10(IC50) results, listed for orientation:
| compoundSmiles | log10(IC50) |
| --- | --- |
| C[C@H]1CN(c2cccc3nc(-c4nc(-c5cc(C(=O)N(C)C)ccn5)cnc4N)n(C)c23)CCN1 | 0.48 |
| Nc1ncc(-c2ccccc2)cc1-c1nc2ccccc2[nH]1 | 2.08 |
| CN(C)C(=O)c1cccc(-c2cnc(N)c(-c3nc4cccc(N5CCNCC5)c4[nH]3)n2)c1 | 1.90 |
| CN(C)C(=O)c1cccc(-c2cnc(N)c(-c3nc4ccccc4[nH]3)c2)c1 | 1.56 |
| Nc1ncccc1-c1nc2ccccc2[nH]1 | 2.85 |
| CN(C)C(=O)c1cccc(-c2cnc(N)c(-c3nc4cccc(N5CCNCC5)c4n3C)n2)c1 | 0.30 |

According to the records, this molecule `CN(C)C(=O)c1cccc(-c2cnc(N)c(-c3nc4cccc(N5CCNCC5)c4[nH]3)c2)c1` displays log10(IC50) of 0.60

For record `C[C@H]1CN(c2cccc3nc(-c4nc(-c5cccc(C(=O)N(C)C)c5)cnc4N)n(C)c23)CCN1` the listed log10(IC50) is 0.18

* * *

Cyclin-dependent kinase 2 (Homo sapiens, UniProt P24941): recorded IC50 for assorted compounds
Reply with just the number (in µM).

| compoundSmiles | unitOfMeasurement | experimentalResult |
| --- | --- | --- |
| CN(C)C(=O)c1cccc(-c2cnc(N)c(-c3nc4cccc(N5CCNCC5)c4[nH]3)n2)c1 | µM | 11 |
| CN(C)C(=O)c1cccc(-c2cnc(N)c(-c3nc4cccc(N5CCNCC5)c4[nH]3)c2)c1 | µM | 4 |
| CN(C)C(=O)c1cccc(-c2cnc(N)c(-c3nc4ccccc4[nH]3)c2)c1 | µM | 5.7 |
| CN(C)C(=O)c1cccc(-c2cnc(N)c(-c3nc4cccc(N5CCNCC5)c4n3C)n2)c1 | µM | 1.4 |

Summary line: `C[C@H]1CN(c2cccc3nc(-c4nc(-c5cccc(C(=O)N(C)C)c5)cnc4N)n(C)c23)CCN1` , Cyclin-dependent kinase 2 (Homo sapiens, UniProt P24941), reported IC50 = 3.4

* * *

Below are IC50 values recorded for Cyclin-dependent kinase 1 (Homo sapiens).
# unit: nM | format: bare number

What the record says about `CN(C)C(=O)c1cccc(-c2cnc(N)c(-c3nc4cccc(N5CCNCC5)c4[nH]3)n2)c1` : IC50 is 1700

Per the records, this compound ( `CN(C)C(=O)c1cccc(-c2cnc(N)c(-c3nc4cccc(N5CCNCC5)c4[nH]3)c2)c1` ) has IC50 equal to 1000

# compound `CN(C)C(=O)c1cccc(-c2cnc(N)c(-c3nc4cccc(N5CCNCC5)c4n3C)n2)c1` ; its IC50 = 500

* * *

# studyTarget: MAP kinase-interacting serine/threonine-protein kinase 1/2 (Homo sapiens, UniProt Q9HBH9+Q9BUB5)
# testSummary: Inhibition of MNK1/2 in human KMS11-luc cells assessed as inhibition of EIF4E phosphorylation at S209 after 3 hrs by quantitative electrochemiluminescence assay
# Format: cell-based
Measured EC50 by item
Your answer should be a number followed by the unit of measure.

| compoundSmiles | EC50 |
| --- | --- |
| CN(C)C(=O)c1cccc(-c2cnc(N)c(-c3nc4cccc(N5CCNCC5)c4[nH]3)c2)c1 | 130 nM |
| CN(C)C(=O)c1cccc(-c2cnc(N)c(-c3nc4cccc(N5CCNCC5)c4n3C)n2)c1 | 5 nM |

# EC50 of `C[C@H]1CN(c2cccc3nc(-c4nc(-c5cc(C(=O)N(C)C)ccn5)cnc4N)n(C)c23)CCN1` = 0.6 nM

EC50 reported for this compound `CN(C)C(=O)c1cccc(-c2cnc(N)c(-c3nc4cccc(N5CCNCC5)c4[nH]3)n2)c1` : 50 nM

The reported value for `C[C@H]1CN(c2cccc3nc(-c4nc(-c5cccc(C(=O)N(C)C)c5)cnc4N)n(C)c23)CCN1` in terms of EC50 is 3 nM
